Target: T1, human Dectin-1 (biosensor tests of Tables 3, 4A and 9; construct not stated) (human, UniProt Q9BXN2 66-247, limits assumed)
T1 construct: also called hDectin-1
T1 sequence (looked up): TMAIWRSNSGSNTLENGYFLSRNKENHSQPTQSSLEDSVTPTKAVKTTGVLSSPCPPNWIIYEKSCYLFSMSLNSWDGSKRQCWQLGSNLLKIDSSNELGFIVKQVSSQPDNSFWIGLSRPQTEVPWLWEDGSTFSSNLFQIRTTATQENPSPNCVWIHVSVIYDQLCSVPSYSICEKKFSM
Test: Octet response
readout type: X = 350
Number only, please.

2M24A.1.20 (Fab, V domains shown, Fab; also called 2M24.1.20) VH: QVQLVQSGAEVKKPGASVKVSCKSSGYTFTDYYIHWVRQAPGQGLEWMGWINPNSGDTNYAQKFQGRITMTRDTSISTAYLELSRLRSDDTAVFYCARNSGSYSAGYWGQGTLVTVSS VL: DIQMTQSPSSVSASVGDRVTITCRASQGISSWLAWYQQKPGKAPKLLIFGASSLQSGVPSRFSGSGSGTDFTLTVSSLQPEDFATYYCQQAYSFPFTFGPGTKVDIE has a reported X = 350 of 0.0215

Next binder, X = 350 to be filled in.
2M24A.1.16 (Fab, V domains shown, Fab; also called 2M24.1.16) VH: QVQLVQSGAEVKKPGASVKVSCKSSGYTFTDYYIHWVRQAPGQGLEWMGWINPNSGDTNYAQKFQGRITMTRDTSISTAYLELSRLRSDDTAVFYCARNAGSYSFGYWGQGTLVTVSS VL: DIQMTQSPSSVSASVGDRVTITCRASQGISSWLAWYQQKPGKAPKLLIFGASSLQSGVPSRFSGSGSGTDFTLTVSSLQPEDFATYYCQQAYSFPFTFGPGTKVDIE has a reported X = 350 of 0.114

// provenance: patent US20250230247A1
